All values here come from ChEMBL document CHEMBL1146879.

- Target system: UniProt:Q99705
- Protocol: Antagonist activity against MCH1R expressed in CHO cells assessed as inhibition of MCH-induced EC80 […] response by luciferase reporter gene assay
Outcome measure: IC50 (nM)

Study these solved cases before continuing.
1. O=c1c2sc(-c3ccc(Cl)cc3)cc2ncn1-c1ccc2[nH]c(NCCN3CCCC3)nc2c1 : 6.31
2. Cc1nc2cc(-n3cnc4cc(-c5ccc(Cl)cc5)sc4c3=O)ccc2n1-c1ccc(N(C)C)cc1 : 5.01
3. CN(C)c1nc2ccc(-n3cnc4cc(-c5ccc(Cl)cc5)sc4c3=O)cc2n1CCO : 12.6
4. CCOc1ccc(-n2c(C)nc3cc(-n4cnc5cc(-c6ccc(Cl)cc6)sc5c4=O)ccc32)cc1 : 3.16

(I) CN(C)c1nc2ccc(-n3cnc4cc(-c5ccc(Cl)cc5)sc4c3=O)cc2n1C
(II) CN(C)c1nc2cc(-n3cnc4cc(-c5ccc(Cl)cc5)sc4c3=O)ccc2[nH]1
(III) Cc1nc2cc(-n3cnc4cc(-c5ccc(Cl)cc5)sc4c3=O)ccc2n1-c1ccc(OC(C)C)cc1
(IV) CCCn1c(N(C)C)nc2cc(-n3cnc4cc(-c5ccc(Cl)cc5)sc4c3=O)ccc21
(V) Cn1c(N2CCCC2)nc2cc(-n3cnc4cc(-c5ccc(Cl)cc5)sc4c3=O)ccc21
Order the records by IC50, with each subsequent value no larger than the one before. # answer = labels listed in requested order
V, III, IV, II, I

----------
- Target system: Melanin-concentrating hormone receptor 1 (Homo sapiens, UniProt Q99705)
- Sequence (Q99705 whole entry): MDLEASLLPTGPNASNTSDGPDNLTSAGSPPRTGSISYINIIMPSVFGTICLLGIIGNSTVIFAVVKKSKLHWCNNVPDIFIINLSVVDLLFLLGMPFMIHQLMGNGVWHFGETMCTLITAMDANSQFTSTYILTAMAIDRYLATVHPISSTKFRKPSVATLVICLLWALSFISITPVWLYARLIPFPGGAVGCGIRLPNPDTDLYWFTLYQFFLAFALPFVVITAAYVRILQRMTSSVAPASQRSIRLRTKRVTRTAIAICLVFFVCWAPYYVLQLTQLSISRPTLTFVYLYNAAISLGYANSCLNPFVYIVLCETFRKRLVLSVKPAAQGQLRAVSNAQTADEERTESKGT
- Protocol: Antagonist activity against MCH1R expressed in CHO cells assessed as inhibition of MCH-induced EC80 […] response by luciferase reporter gene assay
pIC50: −log10 of the molar value.
Outcome measure: pIC50

1. Cc1nc2cc(-n3cnc4cc(-c5ccc(Cl)cc5)sc4c3=O)ccc2n1C1CCCCC1 : 8.20
2. Cc1nc2cc(-n3cnc4cc(-c5ccc(Cl)cc5)sc4c3=O)ccc2n1CCCO : 8.80
3. COc1ccc(-n2c(C)nc3cc(-n4cnc5cc(-c6ccc(Cl)cc6)sc5c4=O)ccc32)cc1 : 8.30

(A) O=c1c2sc(-c3ccc(Cl)cc3)cc2ncn1-c1ccc2[nH]c(NC3CC3)nc2c1
(B) O=c1c2sc(-c3ccc(Cl)cc3)cc2ncn1-c1ccc2[nH]c(N3CCCCC3)nc2c1
Endpoint returns the identifier whose pIC50 is numerically larger, either A or B . // output: label of the selected item
B

(a) COc1ccc(-n2c(N(C)C)nc3cc(-n4cnc5cc(-c6ccc(Cl)cc6)sc5c4=O)ccc32)cc1
(b) Nc1nc2cc(-n3cnc4cc(-c5ccc(Cl)cc5)sc4c3=O)ccc2[nH]1
Endpoint returns the identifier whose pIC50 is numerically larger, either a or b . // output: label of the selected item
a
(a: 8.00, b: 7.50)

----------
- Protocol: Ratio of drug level in brain against plasma in mouse
- Type: ADME, organism-based
- Details: brain and plasma, read-out: BPR
Outcome measure: Kp
In your answer, state the number alone without any accompanying words.

Quick one: Kp for CN(C)c1nc2ccc(-n3cnc4cc(-c5ccc(Cl)cc5)sc4c3=O)cc2n1C ?
2.6
